settings: in chlorobenzene, 368.15 K
measured_quantity: solubility (mole fraction)

// query solubility (mole fraction) lookup needed for C(=Cc1ccc(-c2nc3ccccc3o2)cc1)c1ccc(-c2nc3ccccc3o2)cc1 , thanks.
// result 4.9e-05

---

conditions: in DMF, 383.15 K
measured_quantity: solubility (mole fraction)
Answers are plain numbers.

// query solubility (mole fraction) lookup needed for C(=Cc1ccc(-c2nc3ccccc3o2)cc1)c1ccc(-c2nc3ccccc3o2)cc1 , thanks.
// result 2.63e-05

---

details: in DMF, 338.15 K
measured_quantity: solubility (mole fraction)
Give bare numbers.

// query solubility (mole fraction) lookup needed for C(=Cc1ccc(-c2nc3ccccc3o2)cc1)c1ccc(-c2nc3ccccc3o2)cc1 , thanks.
// result 7.12e-06

---

settings: in DMF, 353.15 K
measured_quantity: solubility (mole fraction)
Give bare numbers.

// query solubility (mole fraction) lookup needed for C(=Cc1ccc(-c2nc3ccccc3o2)cc1)c1ccc(-c2nc3ccccc3o2)cc1 , thanks.
// result 1.04e-05

---

conditions: in DMF, 368.15 K
measured_quantity: solubility (mole fraction)
Answers are plain numbers.

// query solubility (mole fraction) lookup needed for C(=Cc1ccc(-c2nc3ccccc3o2)cc1)c1ccc(-c2nc3ccccc3o2)cc1 , thanks.
// result 1.57e-05

Data credit: BigSolDB 2.1
